Biological target: T1, BMP-10 (UniProt O95393 317-424)
T1 sequence (looked up): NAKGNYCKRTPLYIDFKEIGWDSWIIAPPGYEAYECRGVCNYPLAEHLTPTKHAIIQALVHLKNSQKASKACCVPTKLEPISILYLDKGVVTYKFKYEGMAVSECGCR
Experiment: SPR (Biacore 8K), Fc protein captured on anti-human IgG, ligand injected
result_type: Kd (nM)
Output spec: scalar in nM, unitless text.

INSERT INTO results (binder, meas_value) VALUES
  ('ActRIIA-B1B4 (SEQ ID NO: 102) chimera-Fc protein (Fc fusion, Tested as chimera-Fc protein; also called ActRIIA-B1β4; not shown: linker (if any) and Fc domain) GAILGRSETQECIYYNANWEKDRTNQTGVEPCYGDKDKRRHCFATWKNISGTIELVKKGCWLDDINCYDRTDCVEKKDSPEVYFCCCEGNMCNEKFSYFPEMEVTQPTS', 0.227),
  ('ActRIIB-A2 (SEQ ID NO: 121) chimera-Fc protein (Fc fusion, Tested as chimera-Fc protein; not shown: linker (if any) and Fc domain) GRGEAETRECIYYNANWEKDRTNQSGLERCEGEQDKRLHCYASWRNSSGTIELVKKGCWLDDFNCYDRQECVATEENPQVYFCCCEGNFCNERFTHLPEAGGPEVTYEPPPTAPT', 0.0298),
  ('ActRIIA-A3 (SEQ ID NO: 106) chimera-Fc protein (Fc fusion, Tested as chimera-Fc protein; not shown: linker (if any) and Fc domain) GAILGRSETQECLFFNANWEKDRTNQTGVEPCEGEQDKRRHCFATWKNISGSIEIVKQGCWLDDINCYDRTDCVEKKDSPEVYFCCCEGNMCNEKFSYFPEMEVTQPTS', 0.0289);

Kindly consider the entry below.
### Prompt Quick one: Kd of ActRIIA-A5 (SEQ ID NO: 107) chimera-Fc protein (Fc fusion, Tested as chimera-Fc protein; not shown: linker (if any) and Fc domain) GAILGRSETQECLFFNANWEKDRTNQTGVEPCYGDKDKRRHCFATWKNISGSIEIVKQGCWLDDFNCYDRQECVEKKDSPEVYFCCCEGNMCNEKFSYFPEMEVTQPTS ?
### Response 0.126
